# experiment_notes: Octanol/saline solubility and partition coefficient, shake-flask technique
# measurement_setup: octanol/physiological saline; sodium salts
reported_property: LogPc (octanol-saline partition coefficient)

# molecule, censor_symbol, value
data = [
    ("CCCCCCCCCCCCCCC(CCC)C(=O)[O-].[Na+] (stereo not drawn) [3,14-Na, reference compound]", "=", 1.26),
    ("CCCCCCCCCCCCC(CCC)OCCOCCOP(=O)(O)O (stereo not drawn) [3,12-(ether)-DEG-PO4]", "=", 0.83),
    ("CCCCCCCCCCCCCCCCC(CCC)C(=O)[O-].[Na+] (stereo not drawn) [3,16-Na, reference compound]", "=", 1.26),
    ("CCCCCCCC(CCCCCCC)OP(=O)(O)O [7,7-PO4, 8-Pentadecyl phosphate]", "<", 5),
    ("CCCCCCCCCCCCC(CCC)C(=O)[O-].[Na+] (stereo not drawn) [3,12-Na, reference compound]", "=", 0.99),
    ("CCCCCCCC(CCCCCCC)C(=O)[O-].[Na+] [7,7-Na, reference compound]", "=", 1.33),
]
